These entries and their values trace back to the DeepSol protein solubility set.

measurement.description: soluble on expression in E. coli; label from the status in PepcDB or PDB records
readout.name: soluble on expression in E. coli

MASLLTETMPFRMTMEGTVNGHHFKCTGKGEGNPFEGTQDMKIEVIEGGPLPFAFDILSTSC ... soluble
MSDVDADEARKMAERERKKEEVRKRLEEASRMKKAKKGFLTPERKKKLRKLLMMKAAEDLKQQQMLKEQERQRILQERIIPLPDLDNEDDLEAVYDEIRERLIDLESENYDVSYIVRQKDFEINELTIAVNDLRGKFVKPTLKKVSKTEGKFDKLKKKEATKVDFRAQLKVVDKNEFALDEEDTEKKEKAAWAK ... not soluble
MAIKSVVVGKGTLTLAMKDAHTQALDFSAQVTSAKFQPDSSTGDSITVLSGETIPGKKSFGGHLEIDFLQDFSTNGIVDFSYKNAGKEADFVYTPNTEAKAKLQGTVIIAPLEVGDDVEAIAKSAAKWVVPSLPTFTPGG ... not soluble
MSKKFNGKVCLVTGAGGNIGLATALRLAEEGTAIALLDMNREALEKAEASVREKGVEARSYVCDVTSEEAVIGTVDSVVRDFGKIDFLFNNAGYQGAFAPVQDYPSDDFARVLTINVTGAFHVLKAVSRQMITQNYGRIVNTASMAGVKGPPNMAAYGTSKGAIIALTETAALDLAPYNIRVNAISPGYMGPGFMWERQVELQAKVGSQYFSTDPKVVAQQMIGSVPMRRYGDINEIPGVVAFLLGDDSSFMTGVNLPIAGG ... soluble

// returns reported soluble on expression in E. coli for input MLVGHARKDITPTEPFYLLGYKTELRNQPAKGIHDHIYINALLFYDDKGNECFLATGDLLELEDIVAADIRQKISRKYGIAMDHVIIGVTHDHHSVRDYHRTWEFGKFSQTYYDFFVDSFVQAFEDCRETLTDVTVQYGQQEIFGFYSNRNHANKPSDNAVSVIKFIADGHAVAGIVNMAVHSTVLGPDNQYLTADLAGNTCTKLAKEWGFFPLMLIGCAADSSNRYERQGRDFAELERASSGLAVAISKIQTPKRLCLGKIQTLTLSHEVVNDKPIYDRKLRTMINDLRSGVIKAIGSQSVEAIVEKCEDQLNKPQFHDLLSLQLLDIGELRLFVFPGELASAGAKKLTSFDRLEHHHHHH
not soluble

// returns reported soluble on expression in E. coli for input TGAITVGNKNNDKLTLWTTPAPSPNCRLNAEKDAKLTLVLTKCGSQILATVSVLAVKGSLAPISGTVQSAHLIIRFDENGVLLNNSFLDPEYWNFRNGDLTEGTAYTNAVGFMPNLSAYPKSHGKTAKSNIVSQVYLNGDKTKPVTLTITLNGTQETGDTTPSAYSMSFSWDWSGHNYINEIFATSSYTFSYIAQE
soluble

// returns reported soluble on expression in E. coli for input MGSDKIHHHHHHADNAPAKVQTALKKMYPKADGIAWSQDGGYYCADFMMNGYEKNVWFNAQGQWQMTQTEWGDTDELSATVYNAYASGPYSGWQVEDVTYVEFPKWQPIIVIKVGQQNVDIQYQLFYSPNGTLLRTRNVSYMGDILGPGTFL
not soluble

----------
measurement.description: soluble on expression in E. coli; label from the status in PepcDB or PDB records
readout.name: soluble on expression in E. coli

MGSDKIHHHHHHMNADEFVEAFNNAKDLTELELLAELGKSISDDLEGHEKGKVLGTLGNIYYALHRLKEAEEAYLEALNVYLKLSEEDEGFLPYVVGCLYNLGNLYQVSRKFAEAEKAYTDALKVLGDVRNDQRLAILTALGTMYAKLDMKEHAERCLVEAFEMAKVKGDARLLGTLLNNLAVVYQRGGRKREAAMLLKMALDALERVGEDLGIAAVLQNLLPYLDEDELRRVMERLESFGELPIDLKAKIAYFKARRAEEKGEDSAKHYMEAACLGFMAYRNFGFQSINFMHCLDKVIESDSELREDAVVLKKVILKYYYGSQKVEIDFDSRVGRMIKAVLEGDDIYEDGILEDTVRLIAEDLLKAGTKV ... not soluble
MAHHHHHHMRKEEMNRNFQNASCKEDNYIKAWLKQTENPEFYKNLNDLDDQSYTNEFVKVVDFNNFNSNFINNMMEEPFGDEFSKQKKRKAYSLFYSNEIGPNNEENYDLKNIYTSFDDSDVKYLKSLDKTPSGNMKDRVKGRYKDEHMSIKKLKRENICNENNEPIFPNNIMMDNSPYYKFRHSNKKPSYGSESTNEFFNNYDFETPIKILSSKKKSYDFKNRKDNSTNTTKENSSRENVSSNNSETKRTINFSNKTDDFNDIPFNSDNEYISSPEYMDHEQNTKYINKKQREVNFLGQKLEYKVVGNVINCSKNHPQFTLF ... not soluble

----------
measurement.description: soluble on expression in E. coli; label from the status in PepcDB or PDB records
readout.name: soluble on expression in E. coli

KIIEEFIDSLFSGVVETSETKQLKADLLANAEDRYEDLLSQGKSENEAIGTIISEFGTIDELMEELNLENKQVDEPNDS ... not soluble
KEMRQQVPATIKGPTEEYEYYMELMALLNNLLETARSRGFKFLDSHIEAPEQSSIFLMYPLVSEDHRLISFITDNLRLMAMGQMSPHELEGLLEQEIEAIQNELLLPSRSLQRTAE ... not soluble
MSLLRKDATEERLTGRYFTPKDLASYIIDWVIQDNNINKILEPSCGNGVFLECLGERRLEDGRNITAIEIDEDVSFEASMQIDNSLRFNNCYDYQRALRNDGDIVNNGIVIINDDFYKVYEQELQGQRFQAIVGNPPYIRYQYLSEQQREEQSKILIRNNMRPNKLINAWVSFVVACAEILDGNGKMGLVIPAELLQVAYAEDLRRFIMRTFQRITIVTFRELVFPNVQQEVVLLLVEKEILHTREGHHHHHH ... soluble
GPGSMLGGRHFQRKYEKKQKKKEAKKASQGPLRGAGGSSGVRAAVAAAAGAAVKRKDGSTLKGPVVSHGDFMASRDSANNRKNVPFSSKMEEKVYRKEHRVPKYNSIVDPERQNLAKAAGASSAAQRRRVLRQKGGDDLLDHFRERLNASTFRLLNEQVYNAPTTLASRLLREEATFRDYHTGYHQQLMQWPINPNKLIVESLLGDRRGRFLANKGKSMPGHIPPSWVVADMGCGEAQIAAALKPKGYTVHSFDFFALNSLVTVADTTKVPLADNHVDVCVFSLSLMATDYVKSLFEAFRVLKPKRLLKIIEVRSRVPFPRKFAELVEDIGFDVDYSDVAGDYFVAFDFIKKDGQAAANTQLRHEPGDVLVPSLYKKR ... soluble
GSARPSSSMADFRKFFAKAKHIVIISGAGVSAESGVPTFRGAGGYWRKWQAQDLATPLAFAHNPSRVWEFYHYRREVMGSKEPNAGHRAIAECETRLGKQGRRVVVITQNIDELHRKAGTKNLLEIHGSLFKTRCTSCGVVAENYKSPICPALSGKGAPEPGTQDASIPVEKLPRCEEAGCGGLLRPHVVWFGENLDPAILEEVDRELAHCDLCLVVGTSSVVYPAAMFAPQVAARGVPVAEFNTETTPATNRFRFHFQGPCGTTLPEALA ... soluble

// returns reported soluble on expression in E. coli for input MGSDKIHHHHHHMNEIKRIDTVQQYNDYFGMETLHPLVTVIDAREANPVHFCPKLYNLYAILMKDPDCGTLKYGRSIYDYQQGTMLFLAPGQVMGSDDDGQLHQPGGWLLAFHPELVRNTPLAQFIKNYSFFSYSANEALHLSEQERRTIIDCMCKIREELLHPIDKHTKSLITDNIKLLLDYCERFYDRQFETRENVNLDILARFEQTLDDYLASNLPISKGTPTVQYCADKLCLSANYLSDLLKKETGVSALKHIQQKMLDIAKERVFDVTKSISEISYELGFPYPQHFSRWFKKMVGVTPNEYRQNRNN
not soluble

// returns reported soluble on expression in E. coli for input MAKTYDYLFKLLLIGDSGVGKTCVLFRFSDDSFNNSFISTIGIDFKIRTIELDGKKIKLQIWDTAGQERFRTITTAYYRGAMGIILVYDITNERSFENIKNWIRNIEEHAASDVERMIIGNKCDIEERREVSRDRGEQLAIEYGTKFLETSAKANLNIDEAFFTLARDIKSKMEQNEMRAGGSVSNTGRVNVGGSGTQKKSFFSNWSCNLL
not soluble

// returns reported soluble on expression in E. coli for input MNLEPPKAECRSATRVMGGPCTPRKGPPKCKQRQTRQCKSKPPKKGVQGCGDDIPGMEGCGTDITVICPWEACNHCELHELAQYGIC
soluble

// returns reported soluble on expression in E. coli for input MGNIKVTRDDWLNVAMDVLVSDGVEQVKVMNLAERMAVSRSSFYWYFKSRQDLLDALLAKWQATNTAGLIAQTELPAQTITGAVCNLFHCVVDPALFDTALDFAVRDWARRSGKVRRLLDLSDSRRLEALTAMFLRYDYSQIEAETRARVLYYMQIGYDLAQMNEPIDQRLSFVRHYLFVFTGVQARDEEVAAFSAFARGFWEGRRP
not soluble

// returns reported soluble on expression in E. coli for input MGSDKIHHHHHHMEIFEDVVRCGGFRAAALGRGVSSSAISQSISVLEEALGIRLLNRTTRSVAPTEAGEQLLERLRPALYEIRTAVDDLNQLRERPSGTVRINAPGPAADHVLCPLTFEFMKIYPDVNVEIVSDAAIIDIVEQGFDAGVRFGNQLAQDMIAMPLGPALRYAIVASPDYLRKRGRPHSPRDLLQHDCIRRRFPGGTMVTWKFARDGDEVEITPKGRLTLSSAHQELQAALAGSGIAHLFEDYVRDDVEQGRLVELLCDWKQKLPSWYLYYPSRRHTSAAMRAFLEYIRNQRQHPDRR
not soluble

// returns reported soluble on expression in E. coli for input MVLRTGRLSDFQRDMMNDHWAKFGLDYQKSPFDFVEIFGNANPVVLEIGFGMGRSLVEMAAQNPDRNYIGIEVHTPGVGACIAYAVEKQVDNLRVICHDATEILRDAVADGSLAGLQLYFPDPWQKSKHHKRRIVQTEFVMRLLTKLTAGGFIHFATDWQNYAEHMLAVLRQFSPALVNTSPTGDFIDRPAFRPLTKFEARGQRLGHAVWDLYFVKKLEHHHHHH
not soluble

// returns reported soluble on expression in E. coli for input MGFSKKSQFEGGLESDGKKWVIAGISIRASLKPVKTKLRAPPEIVTEVEEDCYNEEEECSTTPTAKETKIPELLECPPAPRKRRPALKCRSNVVREFFTPPSDLETVFLRRR
not soluble

// returns reported soluble on expression in E. coli for input QSSAQRHADLNTLIGHTEPVANIAQDLYSSLSLADTEASASFVRGTNDNYVEYIQKAALLVTQTDGDIANIATQLPVYTGLVETARANNRQGHPVGVAYMSEASTLMQESILPAASQLYLNAAEQVSTAQRNLARPQ
not soluble
